TARGET ENTITY: β1‐AR (Homo sapiens)
Sequence (P08588 whole entry): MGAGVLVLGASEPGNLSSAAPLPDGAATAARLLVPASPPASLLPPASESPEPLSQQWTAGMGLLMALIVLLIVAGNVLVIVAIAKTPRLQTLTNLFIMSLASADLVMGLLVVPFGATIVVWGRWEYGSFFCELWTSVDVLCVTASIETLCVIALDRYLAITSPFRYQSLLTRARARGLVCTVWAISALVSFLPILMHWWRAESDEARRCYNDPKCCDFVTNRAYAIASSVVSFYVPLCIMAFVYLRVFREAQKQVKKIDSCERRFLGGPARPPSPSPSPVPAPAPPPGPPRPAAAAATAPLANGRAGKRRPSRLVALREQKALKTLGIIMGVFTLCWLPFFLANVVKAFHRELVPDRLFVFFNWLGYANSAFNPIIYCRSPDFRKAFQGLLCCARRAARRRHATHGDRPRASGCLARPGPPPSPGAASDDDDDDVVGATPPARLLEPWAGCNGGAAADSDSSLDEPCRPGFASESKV
ASSAY COMMENT: β1‐AR functional cAMP assay
Assay type: cell-based
SETUP CONDITIONS: EC50 DARK, dark (trans isomer)
QUANTITY NAME: pEC50
Reminder that pEC50 means the negative base-10 logarithm of the concentration expressed in mol/L.

So what does the record say about pEC50 for CC(C)NC[C@H](O)COc1ccc(/N=N/c2ccccc2)cc1 [pAzo‐1] ?
7.82

----------
TARGET ENTITY: β1‐AR (Homo sapiens)
ASSAY COMMENT: β1‐AR functional cAMP assay
Assay type: cell-based
SETUP CONDITIONS: EC50 LIGHT, constant violet light 380 nm (cis isomer)
QUANTITY NAME: pEC50
Reminder that pEC50 means the negative base-10 logarithm of the concentration expressed in mol/L.

So what does the record say about pEC50 for `CC(C)NC[C@H](O)COc1ccc(/N=N/c2ccccc2)cc1` ?
6.48
